Below: a set of entries, each annotated with reported protein stability index.
experiment: protein stability index of a GFP-peptide fusion (yeast GPS) (PSI 1-4); higher = more stable; sorted into four equal gates, so the index is relative within each strain; conditions: ubr1∆
API doc: respond with a numeric literal and nothing else, no unit.

Give protein stability index for the following sequence: LSRYVKWPEYVRVQRQK [RPL8A]
3.02

Determine from records and report protein stability index for DFDDFLKLGLVEYLDVN [RET1]
3.06

---

assay: protein stability index of a GFP-peptide fusion (yeast GPS) (PSI 1-4); higher = more stable; sorted into four equal gates, so the index is relative within each strain; details: ubr1∆
Recorded protein stability index by entry

Below, 4 sequences whose answers are already recorded.
PHELTESVLPAARYDYA [QCR2]; 1.92
STKIIMLLLNDSVENSS [SRB8]; 2.74
KKPGKIAKPNTANAKHT [SMB1]; 2.85
KGGEQISQLYSDAVMAE [YJL041W/NSP1]; 2.33

Shift focus to the following entry.
Return value of protein stability index for input QHLRNEHGMNAPSVPEF [SNF2] , no commentary.
3.09
